# inhibition values compiled below
# target: Tyrosine-protein kinase Fer (Homo sapiens) (UniProt P16591)
# Sequence (P16591 whole entry, looked up): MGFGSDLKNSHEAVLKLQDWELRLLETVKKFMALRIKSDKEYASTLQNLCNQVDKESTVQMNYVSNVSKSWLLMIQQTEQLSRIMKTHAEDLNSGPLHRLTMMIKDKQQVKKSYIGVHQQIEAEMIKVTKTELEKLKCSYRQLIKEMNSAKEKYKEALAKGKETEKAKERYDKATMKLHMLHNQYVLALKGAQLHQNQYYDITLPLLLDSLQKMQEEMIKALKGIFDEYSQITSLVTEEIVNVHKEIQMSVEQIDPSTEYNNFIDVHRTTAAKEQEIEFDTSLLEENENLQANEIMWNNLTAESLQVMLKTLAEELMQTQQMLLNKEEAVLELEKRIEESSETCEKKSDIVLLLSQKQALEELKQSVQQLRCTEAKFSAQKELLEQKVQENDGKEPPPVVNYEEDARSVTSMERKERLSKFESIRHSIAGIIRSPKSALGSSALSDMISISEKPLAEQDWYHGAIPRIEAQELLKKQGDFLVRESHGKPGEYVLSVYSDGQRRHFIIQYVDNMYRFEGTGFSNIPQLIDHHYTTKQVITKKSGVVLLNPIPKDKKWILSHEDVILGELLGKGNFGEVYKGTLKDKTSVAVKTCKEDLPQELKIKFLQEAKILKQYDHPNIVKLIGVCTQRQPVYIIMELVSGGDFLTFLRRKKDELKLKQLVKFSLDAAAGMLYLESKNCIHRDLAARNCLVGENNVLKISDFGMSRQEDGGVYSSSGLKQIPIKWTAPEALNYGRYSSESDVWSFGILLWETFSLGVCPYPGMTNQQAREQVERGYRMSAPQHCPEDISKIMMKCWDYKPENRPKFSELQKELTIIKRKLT
# particulars: at 1 µM
# Description: GSK_PKIS: FER mean inhibition at 1 uM [Nanosyn]

>  <smiles-input>
c1ccc(Nc2ncc(-c3ccccc3)o2)cc1

>  <inhibition, %>
0.57

$$$$
>  <smiles-input>
N#Cc1cccc(Nc2nccc(-c3cnn4ncccc34)n2)c1

>  <inhibition, %>
48.9

$$$$
>  <smiles-input>
NS(=O)(=O)c1ccc(Nc2cc(-c3cccc(O)c3)n[nH]2)cc1

>  <inhibition, %>
7.21

$$$$
>  <smiles-input>
O=C(Nc1ccc(Oc2ccc3[nH]c(NC(=O)c4ccco4)nc3c2)cc1)Nc1cc(C(F)(F)F)ccc1F

>  <inhibition, %>
5.37

$$$$
>  <smiles-input>
Cc1nc(-c2ccccc2)n2nc(NCCCN3CCOCC3)ncc12

>  <inhibition, %>
2.98

$$$$
>  <smiles-input>
CS(=O)(=O)CCNCc1nc(-c2ccc3ncnc(Nc4ccc(OCc5cccc(C(F)(F)F)c5)cc4)c3c2)cs1

>  <inhibition, %>
6.92

$$$$
